test: chemical genetic growth profiling, strain panel (AID 1159580);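 note: tested at 20 µM; growth read once vehicle control cultures reached saturation at 30 °C; 1 = growth at the plate median or of vehicle wells; lower values mean less growth of the strain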; conditions: S. cerevisiae deletion strains, growth OD, locus YPR119W, strain clb2, active compounds read low
The campaign covered roughly 5,500 compounds. About 2,000 (36%) were called active. Roughly 18% stayed inconclusive and do not appear here. The list shows a part of the results.
Catalogue of compounds with associated normalized growth
In your answer, state the number alone without any accompanying words.

• COc1ccc2c(c1O)OCC1c3cc4c(cc3OC21)OCO4 (stereo unspecified) = 0.999

### Prompt # query: normalized growth of entry `COc1cc2occ(-c3ccccc3)c(=O)c2c(OC)c1C`
### Response 0.959

### Prompt # query: normalized growth of entry `COc1cc(-c2coc3cc(OCc4ccccc4)c(OC)c(O)c3c2=O)cc(OCc2ccccc2)c1OC`
### Response 0.981
